# method-summary: Partition coefficients in n-octanol/phosphate buffer (pH 7.4)
# Format: physicochemical
# condition-info: means ± SD, n = 3
logP at 24 h by entry:
Reply: number alone, nothing else.

- compound: "CCCC(=O)OCC(COC(=O)CCC)OC(=O)c1cc(N=Nc2ccc(O)c(C(=O)OC(COC(=O)CCC)COC(=O)CCC)c2)ccc1O"
  logP at 24 h: 0.47
- compound: "CCCC(=O)OCC(COC(=O)CCC)OC(=O)c1cc(N)ccc1O"
  logP at 24 h: 0.58
- compound: "CCCC(=O)Oc1ccc(N=Nc2ccc(OC(=O)CCC)c(C(=O)O)c2)cc1C(=O)O"
  logP at 24 h: 0.32

Now turn to the next compound.
Please report the measured logP at 24 h for Nc1ccc(O)c(C(=O)O)c1 [5-ASA, 5-aminosalicylic acid, reference compound]
0.65

====

Catalogue of P (partition coefficient) readings, one per entry.
# method-summary: Partition coefficients in n-octanol/phosphate buffer (pH 7.4)
# Assay type: physicochemical
# condition-info: means ± SD, n = 3
# answer = number (no unit)

Solved entries (count: 3):
- compound: "CCCC(=O)Oc1ccc(N=Nc2ccc(OC(=O)CCC)c(C(=O)O)c2)cc1C(=O)O"
  readout-type: "P (partition coefficient)"
  reported-measurement: 2.10
- compound: "CCCC(=O)OCC(COC(=O)CCC)OC(=O)c1cc(N)ccc1O"
  readout-type: "P (partition coefficient)"
  reported-measurement: 3.81
- compound: "CCCC(=O)OCC(COC(=O)CCC)OC(=O)c1cc(N=Nc2ccc(O)c(C(=O)OC(COC(=O)CCC)COC(=O)CCC)c2)ccc1O"
  readout-type: "P (partition coefficient)"
  reported-measurement: 2.94

As a next step, examine the compound that follows.
Supply recorded P (partition coefficient) for Nc1ccc(O)c(C(=O)O)c1 [5-ASA, 5-aminosalicylic acid, reference compound] here.
4.47

Data provenance: paper PMC9077470
